Target: Calmodulin-1 (Homo sapiens) (UniProt P0DP23)
Test: calcium-bound CALM1 binders on microarrays, profiling panel, artefact control for SMM control-protein annotation, biochemical, small-molecule microarray, Cy5-labelled CALM1, plus calcium (AID 1112);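 also: score merges spot fluorescence with signal to noise from triplicate slides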
Details: Cy5-CALM1 binding fluorescence, higher = more signal
observable: composite z-score
API doc: respond with a numeric literal and nothing else, no unit.

C=C(CCCC)/C(=C/C[C@@H](OC(=O)c1ccncc1)c1ccc(CO)o1)c1cnc2ccccc2c1 :: -0.0149
C[N+](C)(C)CCCCNC(=O)[C@@H]1C[C@@H]2C(=O)N3CCC[C@H]3C(=O)N2[C@@H]1c1cccc(OCCO)c1 :: 0.658
CCOC(=O)C[C@H]1[C@H](OC(=O)c2cc3ccccc3oc2=O)[C@@H](NC(=O)c2ccc3ccccc3c2)c2cc(OCCCO)ccc2N1C(=O)c1ccc2ccccc2n1 :: -0.463
C=CC[C@@]1(C(=O)N2CCOCC2)N=C(c2ccc(OCCCO)cc2)O[C@@H]1c1ccccc1 :: 0.0806
C[C@H]1C2[C@H](Cc3ccccc3)NC(=O)[C@]23C(=O)N[C@H](Cc2ccccc2)C(=O)N[C@@H](Cc2ccccc2)C(=O)NC/C=C\C/C=C/C3[C@@H]2O[C@]12C (stereo partly drawn) :: -0.348

Report measured composite z-score; entry is "C[C@]1(C(=O)NCCN2CCOCC2)c2ccccc2C(=O)N(Cc2ccccc2)[C@H]1c1ccc(CO)cc1" 0.349

Supply composite z-score value. Item: "O=C(CS)NCCCCCCNC(=O)[C@@H]1C[C@@H]2C(=O)N[C@@H](Cc3ccccc3)C(=O)N2[C@@H]1c1ccc(O)cc1" -0.23

Give recorded composite z-score. "COC(=O)[C@@]1(Cc2ccccc2CN=[N+]=[N-])N=C(c2ccc(OCCCO)cc2)O[C@H]1c1ccccc1N=[N+]=[N-]" -0.17

###

Target: Torsin-1A-interacting protein 2 (Homo sapiens) (UniProt Q8NFQ8)
Sequence (Q8NFQ8 whole entry, looked up): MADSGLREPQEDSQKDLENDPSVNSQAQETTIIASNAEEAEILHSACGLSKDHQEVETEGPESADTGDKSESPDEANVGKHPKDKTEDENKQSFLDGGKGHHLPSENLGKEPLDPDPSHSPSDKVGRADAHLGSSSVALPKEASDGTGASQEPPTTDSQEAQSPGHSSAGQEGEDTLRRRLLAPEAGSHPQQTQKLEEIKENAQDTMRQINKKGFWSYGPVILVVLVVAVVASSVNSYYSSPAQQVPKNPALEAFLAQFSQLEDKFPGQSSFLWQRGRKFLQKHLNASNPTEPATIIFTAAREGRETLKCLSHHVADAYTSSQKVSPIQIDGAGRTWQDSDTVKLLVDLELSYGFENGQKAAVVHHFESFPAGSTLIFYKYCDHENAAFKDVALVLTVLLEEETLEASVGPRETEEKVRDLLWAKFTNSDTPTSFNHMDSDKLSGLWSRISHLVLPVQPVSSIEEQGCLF
Assay: LULL1 binders on small-molecule microarray, primary screen, cell lysate, human LULL1 lysate, 635/667 nm fluorescence (AID 1092);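 also: probe is lysate of COS7 cells overexpressing human LULL1; score merges per-feature 667 nm fluorescence with signal-to-noise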
Conditions: hLULL1 lysate binding, 635 nm fluorescence, higher = more signal
Record Criterion met whenever composite z-score is at 2 or higher; record Criterion not met when lower.

COCC(=C=CC[C@H](O)c1ccc(OCCO)cc1)C[C@H](O)c1ccccn1 :: Criterion not met
O=C1O[C@@H](c2ccccc2)[C@@H](c2ccccc2)N2[C@@H](c3ccc(O)cc3)[C@]3(C(=O)Nc4ccccc43)[C@@H](C(=O)N3CCN(c4ncccn4)CC3)[C@H]12 :: Criterion met
C=CCNC(=O)[C@H]1[C@@H]2C(=O)O[C@@H](c3ccccc3)[C@@H](c3ccccc3)N2[C@@H](c2ccccc2OCCO)[C@]12C(=O)N(C(=O)OCCOC)c1ccc(C#CCNC(N)=O)cc12 :: Criterion met
C=CCN1C(=O)[C@@]2(Cc3ccccc3)N=C(c3ccc(OCCCO)cc3)O[C@H]2c2ccccc21 :: Criterion met
C=CC[C@@]1(C(=O)NCC(O)CO)N=C(c2ccc(OCCCO)cc2)O[C@@H]1c1ccccc1CN=[N+]=[N-] (some centres undefined) :: Criterion met

# bool: composite z-score of "CCOC(=O)C1=CC[C@@H](c2ccccc2)N(S(=O)(=O)c2ccc(C)cc2)[C@H]1C" >= 2 Criterion met

Record "C[C@@H]1CC[C@H]2C(=O)N3[C@@H](CC[C@@H](C)[C@@H]3c3cccc(N4CCOCC4)c3)C(=O)N2[C@H]1c1cccc(Br)c1" ; criterion: composite z-score no lower than 2. Met? Criterion not met

# bool: composite z-score of "COCCOC(=O)N1C(=O)[C@@]2(c3cc(C#CC4=CCCCC4)ccc31)[C@H](c1ccc(O)cc1)N1[C@H](c3ccccc3)[C@H](c3ccccc3)OC(=O)[C@H]1[C@@H]2C(=O)N1CCCCCCC1" >= 2 Criterion met

composite z-score >= 2 for "C=CC[C@]1(C(=O)O)N=C(c2ccc(OCCCO)cc2)O[C@H]1c1ccccc1" ? Criterion met

State whether the measured composite z-score reaches 2, counting equality as reaching it, for "COCCOC(=O)N1C(=O)[C@@]2(c3cc(C#CCNC(N)=O)ccc31)[C@H](c1ccc(OCCO)cc1)N1[C@H](c3ccccc3)[C@H](c3ccccc3)OC(=O)[C@H]1[C@@H]2C(=O)Nc1nc2ccccc2s1" Criterion not met
